- subject-of-test: USP19 (Homo sapiens)
- Sequence (O94966 whole entry): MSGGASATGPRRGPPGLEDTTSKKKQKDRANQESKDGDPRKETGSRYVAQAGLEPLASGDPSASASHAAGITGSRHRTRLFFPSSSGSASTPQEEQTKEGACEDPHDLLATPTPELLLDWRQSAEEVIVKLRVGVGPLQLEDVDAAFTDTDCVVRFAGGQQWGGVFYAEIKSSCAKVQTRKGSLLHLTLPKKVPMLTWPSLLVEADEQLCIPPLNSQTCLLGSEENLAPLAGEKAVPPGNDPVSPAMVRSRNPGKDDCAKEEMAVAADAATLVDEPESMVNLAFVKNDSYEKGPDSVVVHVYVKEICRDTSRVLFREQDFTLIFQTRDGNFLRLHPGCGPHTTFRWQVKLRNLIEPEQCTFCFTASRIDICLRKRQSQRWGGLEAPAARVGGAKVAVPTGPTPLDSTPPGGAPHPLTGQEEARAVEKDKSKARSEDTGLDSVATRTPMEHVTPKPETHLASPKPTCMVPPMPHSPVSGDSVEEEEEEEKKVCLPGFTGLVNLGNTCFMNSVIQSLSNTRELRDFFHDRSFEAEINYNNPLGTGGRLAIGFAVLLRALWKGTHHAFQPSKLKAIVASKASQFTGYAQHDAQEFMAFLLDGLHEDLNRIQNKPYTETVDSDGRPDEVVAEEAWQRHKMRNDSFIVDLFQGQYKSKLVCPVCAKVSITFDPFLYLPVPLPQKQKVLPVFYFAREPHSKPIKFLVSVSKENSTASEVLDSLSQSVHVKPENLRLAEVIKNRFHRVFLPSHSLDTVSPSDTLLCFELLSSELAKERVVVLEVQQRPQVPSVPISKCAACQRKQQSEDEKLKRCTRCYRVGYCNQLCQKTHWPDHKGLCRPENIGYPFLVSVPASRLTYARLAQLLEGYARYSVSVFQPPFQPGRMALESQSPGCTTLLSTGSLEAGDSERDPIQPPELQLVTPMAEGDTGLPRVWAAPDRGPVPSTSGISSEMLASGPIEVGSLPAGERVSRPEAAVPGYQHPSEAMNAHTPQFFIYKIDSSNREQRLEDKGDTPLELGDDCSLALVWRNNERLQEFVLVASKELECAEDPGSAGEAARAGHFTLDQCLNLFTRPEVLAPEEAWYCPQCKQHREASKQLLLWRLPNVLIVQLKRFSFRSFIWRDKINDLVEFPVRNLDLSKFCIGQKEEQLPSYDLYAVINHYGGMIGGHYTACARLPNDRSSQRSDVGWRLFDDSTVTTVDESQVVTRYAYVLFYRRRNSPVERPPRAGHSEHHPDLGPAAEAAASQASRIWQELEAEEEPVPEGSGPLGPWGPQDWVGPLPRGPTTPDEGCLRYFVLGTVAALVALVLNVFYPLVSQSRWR
assay-endpoint: IC50

> print(dat)
                                   molecule  assay.endpoint    result
1  C[C@H](CC1CCCCC1)C(=O)N1CCC(O)(Cn2cnc(-c3cccc(CO)c3)cc2=O)C(C)(C)C1 (some centres unmarked)            IC50  < 0.5 µM
2  C[C@H](CC1CCCCC1)C(=O)N1CC[C@@](O)(Cn2cc(C(=O)N3CCNCC3)c(-c3ccccc3F)cc2=O)C(C)(C)C1            IC50  < 0.5 µM
3  C[C@H](CC1CCCCC1)C(=O)N1CCC(O)(Cn2cnc(-c3ccsc3)cc2=O)C(C)(C)C1 (some centres unmarked)            IC50  < 0.5 µM

// IC50 lookup, key: O=C(c1cn(C[C@]2(O)CCN(C(=O)[C@H](CO)CC(F)(F)F)CC23CCCC3)c(=O)cc1-c1ccccc1)N1CCOCC1
< 0.5 µM

Would you mind telling me what IC50 value was observed for C[C@H](CC1CCCCC1)C(=O)N1CC[C@@](O)(Cn2cc(C(=O)N(C)C)c(-c3ccccc3)cc2=O)C(C)(C)C1 ?
< 0.5 µM

Quick one: IC50 of CN(C)C(=O)c1cn(C[C@@]2(O)CCN(C(=O)[C@H](CO)CC3CCCCC3)CC2(C)C)c(=O)cc1-c1ccccc1 ?
5 to 50 µM

Report IC50 for C[C@H](CC1CCCCC1)C(=O)N1CCC(O)(Cn2cnc(-c3ccccc3F)cc2=O)C2(CCCC2)C1 (some centres unmarked) please.
< 0.5 µM

May I ask what IC50 has been recorded for C[C@H](CC1CCC1)C(=O)N1CC[C@@](O)(Cn2cc(C(=O)N(C)C)c(-c3ccccc3F)cc2=O)C2(CCCC2)C1 ?
< 0.5 µM

Requested read-out: IC50. Entry: C[C@H](CC1CCC1)C(=O)N1CC[C@@](O)(Cn2cc(C(=O)N(C)C)c(-c3ccccc3)cc2=O)C2(CCCC2)C1
< 0.5 µM

Recorded IC50 of C[C@H](CC1CCCCC1)C(=O)N1CCC(O)(Cn2cnc(-c3ccc(CO)cc3)cc2=O)C(C)(C)C1 (some centres unmarked) , please.
< 0.5 µM

Requested field: IC50. Item: C[C@H](CC(F)(F)F)C(=O)N1CC[C@@](O)(Cn2cc(C(=O)N(C)C)c(-c3ccccc3)cc2=O)C2(CCCC2)C1
< 0.5 µM

What value of measured IC50 is listed for C[C@H](CC1CCC1)C(=O)N1CC[C@@](O)(Cn2cc(C(=O)N3CCNCC3)c(-c3ccccc3F)cc2=O)C(C)(C)C1 ?
< 0.5 µM

// lookup IC50 for C[C@H](CC1CCCCC1)C(=O)N1CCC(O)(Cn2cc(C(=O)N(C)C)c(-c3ccccc3)cc2=O)C2(CCCCC2)C1 (some centres unmarked)
< 0.5 µM

Give the measured IC50 of C[C@H](CC(=O)N1CCC(O)(Cn2cnc(-c3ccccc3)cc2=O)CC1(C)C)c1ccccc1 (mixture of isomers) .
50 to 250 µM

Need IC50 of CCC(n1cnc(-c2ccccc2)cc1=O)C1(O)CCN(C(=O)[C@H](C)CC2CCCCC2)CC1 (some centres unmarked) , thanks.
5 to 50 µM

Data request, read-out IC50, for COC[C@H](CC1CCCCC1)C(=O)N1CC[C@@](O)(Cn2cc(C(=O)N(C)C)c(-c3ccccc3)cc2=O)C(C)(C)C1
< 0.5 µM

IC50 for CN(C)C(=O)c1cn(CC2(O)CCN(C(=O)C(O)CC3CCCCC3)CC23CCCC3)c(=O)cc1-c1ccccc1 (centres unmarked) ?
< 0.5 µM

What value of IC50 has been recorded for this entry: C[C@H](CC1CCCCC1)C(=O)N1CC[C@@](O)(Cn2cc(C(=O)N(C)C)c(C3CC3)cc2=O)C2(CCCC2)C1
< 0.5 µM

Query (molecule): C[C@H](CC1CCCCC1)C(=O)N1CCC(O)(Cn2cc(C(=O)N3CCNCC3)c(-c3ccccc3)cc2=O)C2(CCCCC2)C1 (some centres unmarked) ; field requested: IC50
< 0.5 µM

I'd like to know its IC50. The molecule in question is C[C@H](CC1CCCCC1)C(=O)N1CC[C@@](O)(Cn2cc(C(=O)N3CCNCC3)c(-c3ccccc3)cc2=O)C(C)(C)C1
< 0.5 µM

Data request, read-out IC50, for C[C@H](CC1CCC1)C(=O)N1CC[C@@](O)(Cn2cc(C(=O)N3CCNCC3)c(-c3ccccc3F)cc2=O)C2(CCCC2)C1
< 0.5 µM

Any idea what IC50 was measured for C[C@H](CC1CCCCC1)C(=O)N1CCC(O)(Cn2cnc(-c3ccccc3F)cc2=O)C2(CCC2)C1 (mixture of isomers) ?
0.5 to 5 µM

Endpoint output: IC50 of C[C@H](CC(C)(F)F)C(=O)N1CC[C@@](O)(Cn2cnc(-c3ccccc3)cc2=O)C2(CCCC2)C1 . Value?
< 0.5 µM
